Tested on: Mus musculus
Experiment: Toxicity in mouse assessed as effect on pentobarbital sodium-induced hypnotic effect measured as recovery of righting reflex at 50 mg/kg pretreated for 30 mins prior to pentobarbital sodium-challenge
Assay type: organism-based
Parameters: dose 50 mg/kg
Conditions: in vivo
Catalogue of Time readings, one per entry.
observable: Time (min)

INSERT INTO assay_data (molecule, observable, readout_value) VALUES
  ('FCCCN1CCC(=C2c3ccc(Cl)cc3CCc3cccnc32)CC1', 'Time', 98),
  ('OCCCN1CCC(=C2c3ccc(Cl)cc3CCc3cccnc32)CC1', 'Time', 76),
  ('Clc1ccc2c(c1)CCc1cccnc1C2=C1CCN(C2CCC(Cl)CC2)CC1 (stereo not given)', 'Time', 82),
  ('CCCN1CCC(=C2c3ccc(Cl)cc3CCc3cccnc32)CC1', 'Time', 76),
  ('ClCCCN1CCC(=C2c3ccc(Cl)cc3CCc3cccnc32)CC1', 'Time', 97);
